target of assay: human ether-à-go-go-related gene (hERG) potassium channel (human, UniProt Q12809)
Sequence (Q12809 whole entry, looked up): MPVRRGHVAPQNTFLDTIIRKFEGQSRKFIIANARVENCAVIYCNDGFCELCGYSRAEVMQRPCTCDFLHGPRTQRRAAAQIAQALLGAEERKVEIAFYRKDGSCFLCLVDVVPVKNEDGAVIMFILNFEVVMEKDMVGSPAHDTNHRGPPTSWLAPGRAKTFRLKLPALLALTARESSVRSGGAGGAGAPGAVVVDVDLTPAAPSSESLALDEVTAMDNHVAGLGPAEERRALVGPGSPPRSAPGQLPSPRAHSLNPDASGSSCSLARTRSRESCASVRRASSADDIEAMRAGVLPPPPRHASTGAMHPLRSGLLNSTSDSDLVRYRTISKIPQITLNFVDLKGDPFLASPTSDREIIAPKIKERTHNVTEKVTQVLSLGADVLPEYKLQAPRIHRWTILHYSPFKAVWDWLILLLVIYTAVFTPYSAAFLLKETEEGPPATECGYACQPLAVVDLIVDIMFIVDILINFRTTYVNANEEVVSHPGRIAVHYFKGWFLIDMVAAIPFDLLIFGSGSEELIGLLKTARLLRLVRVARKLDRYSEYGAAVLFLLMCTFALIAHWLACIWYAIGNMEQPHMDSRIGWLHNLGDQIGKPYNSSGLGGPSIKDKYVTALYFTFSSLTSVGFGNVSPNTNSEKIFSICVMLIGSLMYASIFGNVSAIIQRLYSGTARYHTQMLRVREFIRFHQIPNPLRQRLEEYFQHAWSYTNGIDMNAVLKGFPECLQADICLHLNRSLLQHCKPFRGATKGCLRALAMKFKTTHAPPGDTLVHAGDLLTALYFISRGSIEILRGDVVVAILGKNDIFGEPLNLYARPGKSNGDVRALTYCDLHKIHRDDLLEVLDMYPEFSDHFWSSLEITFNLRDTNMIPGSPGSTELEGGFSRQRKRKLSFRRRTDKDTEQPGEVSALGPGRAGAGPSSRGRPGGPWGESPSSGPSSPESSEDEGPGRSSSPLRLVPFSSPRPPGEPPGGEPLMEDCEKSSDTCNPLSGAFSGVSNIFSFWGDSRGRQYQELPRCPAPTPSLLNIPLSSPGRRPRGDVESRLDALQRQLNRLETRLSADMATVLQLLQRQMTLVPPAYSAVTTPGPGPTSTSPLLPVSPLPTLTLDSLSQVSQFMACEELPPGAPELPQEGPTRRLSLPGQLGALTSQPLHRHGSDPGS
assay remarks: primary screen, population patch clamp on CHO cells stably expressing hERG; higher = less effect of the substance
Hit rate of the full screen: of about 310,000 compounds, about 14,000 (4.5%) showed an effect of 50% or more. The effect is printed as a negative number. The entries come from a sample that favours strong results as a whole.
measure: hERG current change (%, negative = inhibition) at 10uM (%)
Only the number, expressed in %, is required.

INPUT: Fill in hERG current change (%, negative = inhibition) at 10uM for record `CCOC(=O)c1ccc[n+](CC(=O)Nc2ccccc2OC(F)F)c1.[Cl-]`
OUTPUT: 4.85

INPUT: Fill in hERG current change (%, negative = inhibition) at 10uM for record `COc1ccc(-n2cc(CNCCc3cnc[nH]3)c(-c3cccc(F)c3)n2)cc1`
OUTPUT: -28.9

INPUT: Fill in hERG current change (%, negative = inhibition) at 10uM for record `CCOc1cc(N2CCOCC2)c(OCC)cc1NC(=O)CN1CCc2ccccc2C1`
OUTPUT: 2.76

INPUT: Fill in hERG current change (%, negative = inhibition) at 10uM for record COc1ccc(S(=O)(=O)N2CCCC(N(C)CCc3ccccc3)C2)cc1OC (centres unmarked)
OUTPUT: -66.5

INPUT: Fill in hERG current change (%, negative = inhibition) at 10uM for record COc1ccc(S(=O)(=O)N2CCCC(C(=O)N3CCCC3)C2)cc1OC (centres unmarked)
OUTPUT: 4.14

====

target of assay: human ether-à-go-go-related gene (hERG) potassium channel (human);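 note: peak tail current of the secondary pulse compared with the same well before compound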
assay remarks: primary screen, population patch clamp on CHO cells stably expressing hERG; higher = less effect of the substance
Hit rate of the full screen: of about 310,000 compounds, about 14,000 (4.5%) showed an effect of 50% or more. The effect is printed as a negative number. For the sample, strong results were picked, then their nearest neighbours and some compounds at random.
Quick list: hERG current change (%, negative = inhibition) at 10uM per entry.
Only the number, expressed in %, is required.

{"molecule": "CCOC(=O)CCCCCNC(=O)c1c(O)[nH]c(=O)[nH]c1=O", "measured result": 17.7}
{"molecule": "Cc1cccc(-c2nc(CS(=O)CC(=O)N3CC(C)CC(C)C3)c(C)o2)c1 (stereo not shown)", "measured result": -25.3}

INPUT: Fill in hERG current change (%, negative = inhibition) at 10uM for record CC1=NNC(=O)C1CC(=O)N/N=C/c1ccc(C)o1 (stereo not shown)
OUTPUT: 10.7

INPUT: Fill in hERG current change (%, negative = inhibition) at 10uM for record Cc1ccc(CN2CC(C(=O)N3CCN(S(=O)(=O)c4cccc(F)c4)CC3)CC2=O)cc1 (stereo not shown)
OUTPUT: -32.6

====

target of assay: human ether-à-go-go-related gene (hERG) potassium channel (human, UniProt Q12809);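 note: peak tail current of the secondary pulse compared with the same well before compound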
assay remarks: primary screen, population patch clamp on CHO cells stably expressing hERG; higher = less effect of the substance
The whole screen tested about 310,000 compounds, of which about 14,000 (4.5%) showed an effect of 50% or more. The effect is printed as a negative number. Many of the other results were omitted from the sample, so strong results are more common in it than they were.
Criterion: hERG current change (%, negative = inhibition) at 10uM meeting or surpassing -40%. Met: rule met. Not met: rule not met.

Sample answers from the record:
{"compound": "CSc1ccc(CN(C)CC(=O)NCc2ccccc2)cc1", "class label": "rule not met"}
{"compound": "COc1ccc(CNC(=O)CN(C)Cc2ccc(SC)cc2)cc1", "class label": "rule not met"}
{"compound": "CCOC(=O)C(Cc1ccccc1)NC(=O)CCCC(=O)c1ccccc1 (stereo not drawn)", "class label": "rule met"}
{"compound": "CCCC(c1nnnn1Cc1cccs1)N1CCN(c2nc3ccccc3s2)CC1 (stereo not drawn)", "class label": "rule met"}
{"compound": "CN(C)CCOCCOc1ccc(Cl)cc1Br.O=C(O)C(=O)O", "class label": "rule not met"}
{"compound": "Cc1cc(Cl)cc(Cl)c1OCCCCN(C)C.O=C(O)C(=O)O", "class label": "rule not met"}

INPUT: Hello, I need to know if `CN(CC(=O)NCc1ccc(F)cc1)Cc1ccc(Br)cc1` has measured hERG current change (%, negative = inhibition) at 10uM not below -40%. Thanks!
OUTPUT: rule met

INPUT: Hello, I need to know if `CN(CC(=O)NCc1ccccc1)Cc1cccc(F)c1.O=C(O)C(=O)O` has measured hERG current change (%, negative = inhibition) at 10uM not below -40%. Thanks!
OUTPUT: rule met

INPUT: Hello, I need to know if `CN(C)CCCOc1ccc(Cl)cc1Br.O=C(O)C(=O)O` has measured hERG current change (%, negative = inhibition) at 10uM not below -40%. Thanks!
OUTPUT: rule not met

INPUT: Hello, I need to know if COCCn1nnnc1C(CC(C)C)N1CCN(c2nc3ccccc3s2)CC1 (stereo not drawn) has measured hERG current change (%, negative = inhibition) at 10uM not below -40%. Thanks!
OUTPUT: rule met

INPUT: Hello, I need to know if `CSc1ccc(CN(C)CC(=O)Nc2ccccc2Br)cc1` has measured hERG current change (%, negative = inhibition) at 10uM not below -40%. Thanks!
OUTPUT: rule met

INPUT: Hello, I need to know if CCOC(=O)NC(N(O)c1cccc(Cl)c1)C(Cl)(Cl)Cl (stereo not drawn) has measured hERG current change (%, negative = inhibition) at 10uM not below -40%. Thanks!
OUTPUT: rule not met

INPUT: Hello, I need to know if `CSc1ccc(CN(C)CC(=O)NCCc2ccccc2)cc1` has measured hERG current change (%, negative = inhibition) at 10uM not below -40%. Thanks!
OUTPUT: rule met

====

target of assay: human ether-à-go-go-related gene (hERG) potassium channel (human);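 note: peak tail current of the secondary pulse compared with the same well before compound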
assay remarks: primary screen, population patch clamp on CHO cells stably expressing hERG; higher = less effect of the substance
Hit rate of the full screen: of about 310,000 compounds, about 14,000 (4.5%) showed an effect of 50% or more. The effect is printed as a negative number. Many of the other results were omitted from the sample, so strong results are more common in it than they were.
measure: hERG current change (%, negative = inhibition) at 10uM (%)
Only the number, expressed in %, is required.

Below, each entry is followed by its recorded hERG current change (%, negative = inhibition) at 10uM result.
{"compound": "COc1ccc(/C=C/C(=O)N(C)c2ccccc2C(=O)O)cc1", "measured result": -4.18}
{"compound": "COc1ccc(/C=C/C(=O)N(C)C2CCS(=O)(=O)C2)cc1OC (centres unmarked)", "measured result": 2.01}
{"compound": "CCCCC(CC)C(=O)Nc1cc(C(=O)NCc2ccc(C)cc2)ccc1N1CCC2(CC1)CC(c1cccc(Br)c1)=NO2 (centres unmarked)", "measured result": 17.6}
{"compound": "CCOc1ccc(C(=O)NC2CCN(C(=O)Nc3ccc(F)cc3)CC2)cc1", "measured result": 0.481}

Let us examine a further case.
INPUT: Fill in hERG current change (%, negative = inhibition) at 10uM for record `Cn1c(=O)n(CCc2ccccc2)c(=O)c2c1nc1n2CCCN1c1ccccc1`
OUTPUT: -20.7

====

target of assay: human ether-à-go-go-related gene (hERG) potassium channel (human, UniProt Q12809);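 note: peak tail current of the secondary pulse compared with the same well before compound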
assay remarks: primary screen, population patch clamp on CHO cells stably expressing hERG; higher = less effect of the substance
The whole screen tested about 310,000 compounds, of which about 14,000 (4.5%) showed an effect of 50% or more. Effects have a minus sign here. Many of the other results were omitted from the sample, so strong results are more common in it than they were.
measure: hERG current change (%, negative = inhibition) at 10uM
Please format your answer as a value with the unit trailing.

Below, each entry is followed by its recorded hERG current change (%, negative = inhibition) at 10uM result.
{"molecule": "CN(C)CCCN=Cc1c(O)n(CCc2ccc(F)cc2)c(=O)[nH]c1=O", "measured result": "15.2%"}
{"molecule": "O=C(CN1CCN(Cc2ccc(F)cc2)CC1)NCc1ccccc1", "measured result": "-27.5%"}
{"molecule": "Fc1ccc(CN2CCN(c3ccc(Cl)cc3)CC2)cc1", "measured result": "-13.6%"}
{"molecule": "CCN(CC)CCCN=Cc1c(O)n(Cc2ccc(F)cc2)c(=O)[nH]c1=O", "measured result": "-33.7%"}
{"molecule": "CCN(CC)CCN=Cc1c(O)n(CCC2=CCCCC2)c(=O)[nH]c1=O", "measured result": "-65.6%"}

INPUT: Fill in hERG current change (%, negative = inhibition) at 10uM for record `O=C(CN1CCN(Cc2ccccc2)CC1)NCc1ccc(Cl)cc1`
OUTPUT: -61.1%

INPUT: Fill in hERG current change (%, negative = inhibition) at 10uM for record `O=C(NCc1ccc(Cl)cc1)N1CCN(Cc2ccccc2)CC1`
OUTPUT: -29.9%
